Reference source: patent US20110044994A1

subject of test: JR-FL (E168K) pseudovirus Env (HIV-1)
assay protocol: cell-based or functional assay
endpoint label: IC50 (ug/ml), pseudovirus neutralization, TZM-bl assay (µg/mL)

binder	reported result
1456_A12 (PG16) (antibody, V domains shown) VH: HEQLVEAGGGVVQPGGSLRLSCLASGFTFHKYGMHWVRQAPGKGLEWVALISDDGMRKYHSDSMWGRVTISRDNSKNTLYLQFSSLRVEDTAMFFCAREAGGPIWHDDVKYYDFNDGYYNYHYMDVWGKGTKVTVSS VL: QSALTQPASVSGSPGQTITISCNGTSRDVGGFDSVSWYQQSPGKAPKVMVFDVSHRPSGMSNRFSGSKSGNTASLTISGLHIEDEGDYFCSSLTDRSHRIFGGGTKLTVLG	0.003
